Please provide measured MIC for the entries that follow.
system: Staphylococcus aureus; test: Antibacterial activity against methicillin-resistant Staphylococcus aureus clinical isolate OM481 by liquid microdilution method; assay type: functional
Reply numerically in µg/mL, unit not repeated.

Exercise: Give the measured MIC of `Oc1ccc2c(c1)CCc1ccc(cc1O)Oc1cc(ccc1O)CCc1ccc-2c(O)c1` .
Key: 8

Exercise: Reported MIC, compound `Oc1ccccc1Oc1ccccc1` : ____
Key: 8

Exercise: Entry `Oc1ccc2c(c1)CCc1ccc(c(O)c1)-c1ccc(O)c(c1)CCc1ccc-2c(O)c1` has what MIC?
Key: 32

Exercise: Entry `Oc1ccc2c(c1)CCc1ccc(c(O)c1)Oc1cc(ccc1O)CCc1ccc-2c(O)c1` has what MIC?
Key: 16
